Hello, the source for this data is PubChem BioAssay (NCI), in case you need it.

test system: SNB-78 CNS; experiment: NCI tumour cell line growth inhibition, 48 h
Quick reference for TGI among some compounds
Form entry: value (µM) — number only.

# compound, TGI [µM]
data = [
    ("Cc1c(NC(=O)/C(=N/NC(=S)N=N)C2C(=O)CC(C)(C)CC2=O)c(O)c2ccccc2c1O", 58.8),
]

Reported TGI, compound CC(C)=CCCC(C)[C@H]1CC(O)C2(C)C3=CCC4C(C)(C)[C@@H](O)CC[C@]4(C)C3=CC[C@]12C (some centres undefined) : ____ 32.4

----------
Quick reference for TGI among some compounds
system: SK-OV-3 ovarian; assay: NCI tumour cell line growth inhibition, 48 h
Form entry: value (µM) — number only.

# compound, unit.spec, TGI
measured = [
    ("N#C/C(=C\\c1cn(Cc2ccccc2)c2ccccc12)C(=O)Nc1ncc(Cc2ccccc2Cl)s1", "µM", 4.66),
    ("COc1ncc(-c2ccc3nccc(C#CCCCCC(=O)O)c3c2)cc1NS(=O)(=O)c1ccc(F)cc1F", "µM", 0.657),
    ("CC(C)=CCCC(C)[C@H]1CC(O)C2(C)C3=CCC4C(C)(C)[C@@H](O)CC[C@]4(C)C3=CC[C@]12C (some centres undefined)", "µM", 24.8),
]

For the next question, use this compound.
Reported TGI, compound COc1ccc(N2C(=O)C3c4[nH]c5ccccc5c4C4CCC(c5ccccc5)CC4C3C2=O)cc1 (centres undefined) : ____ 54.8

----------
Quick reference for TGI among some compounds
tested on: MALME-3M melanoma; assay: NCI tumour cell line growth inhibition, 48 h
Form entry: value (µM) — number only.

# compound, TGI, µM
measured = [
    ("CCOC(=O)/C(=C\\c1ccccc1)C(=O)CCN1CCOCC1", 7.85),
    ("COc1ccc(N2C(=O)C3c4[nH]c5ccccc5c4C4CCC(c5ccccc5)CC4C3C2=O)cc1 (stereo not given)", 18.3),
    ("CCN1C(=O)C(=C/C=C/c2ccc(OC)cc2)C(=O)N(CC)C1=S", 28),
    ("CCOC(=O)c1c(NC(=O)COc2cccc3cccnc23)sc(C(=O)N(C)C)c1C", 46.6),
]

Reported TGI, compound `O=C1C=CC(=O)c2c(O)c(N3CCN(c4ccccn4)CC3)c(Cl)c(O)c21` : ____ 3.05

Reported TGI, compound `Cc1nc2c(n1CC(C)C)C(=O)c1ccccc1C2=O` : ____ 40.6

----------
system: K-562 leukemia; assay: NCI tumour cell line growth inhibition, 48 h
Quick reference for TGI among some compounds
Form entry: value (µM) — number only.

# compound, TGI / µM
records = [
    ("COc1ccc(C2/C(=C(\\O)c3ccccc3)C(=O)C(O)(CC(=O)c3ccccc3)N2c2ccc(OC)cc2)cc1 (stereo not given)", 58.8),
]

Reported TGI, compound `COc1ccc(-c2csc(-n3c(-c4ccccc4)nc4c(Br)cc(Br)cc4c3=O)n2)cc1` : ____ 58.7

----------
Quick reference for TGI among some molecules
tested on: SF-268 CNS; assay: NCI tumour cell line growth inhibition, 48 h

# molecule, endpoint.value
measured = [
    ("COc1ccc(C23OCC(Cc4cc(OC)c(OC)cc42)C3COC(C)=O)cc1OC (stereo not drawn)", "> 100 µM"),
    ("COc1ccc2c(c1)C(N)=C(c1ccccc1OC)C2=O", "> 100 µM"),
    ("O=C1C=CC(=O)c2c1ccc1c3ccccc3n(CCCCCCCCn3c4ccccc4c4ccc5c(c43)C(=O)C=CC5=O)c21", "> 100 µM"),
]

For the next question, use this molecule.
Reported TGI, molecule `CCCC(=O)N(C(=O)CCC)C1=C(Cl)C(=O)c2ccccc2C1=O` : ____ > 45.2 µM
